assay: Terminal plasma concentration in ovalbumin-immunized C57Bl6 mouse at 6 mg/kg, po administered 2 h prior to OVA immunization and measured after 5 hrs; assay type: ADME, organism-based; conditions: read-out: Cp(T)
OBSERVED_PROPERTY: concentration at 2 h (nM)
State just the number; it will be interpreted in nM.

[ask] Would you kindly share the measured concentration at 2 h for `C=CC(=O)N(C)Cc1c[nH]c2ncnc(-c3cccc(NC(=O)c4ccc(C(C)(C)C)cc4)c3C)c12` ?
[reply] 4

---

target: Tyrosine-protein kinase BTK (Homo sapiens, UniProt Q06187); test: Inhibition of BTK in vitamin D3 differentiated human THP1 cells assessed as inhibition of FCgammaR-induced IL8 production measured after 24 hrs by immunoblot analysis
Sequence (Q06187 whole entry): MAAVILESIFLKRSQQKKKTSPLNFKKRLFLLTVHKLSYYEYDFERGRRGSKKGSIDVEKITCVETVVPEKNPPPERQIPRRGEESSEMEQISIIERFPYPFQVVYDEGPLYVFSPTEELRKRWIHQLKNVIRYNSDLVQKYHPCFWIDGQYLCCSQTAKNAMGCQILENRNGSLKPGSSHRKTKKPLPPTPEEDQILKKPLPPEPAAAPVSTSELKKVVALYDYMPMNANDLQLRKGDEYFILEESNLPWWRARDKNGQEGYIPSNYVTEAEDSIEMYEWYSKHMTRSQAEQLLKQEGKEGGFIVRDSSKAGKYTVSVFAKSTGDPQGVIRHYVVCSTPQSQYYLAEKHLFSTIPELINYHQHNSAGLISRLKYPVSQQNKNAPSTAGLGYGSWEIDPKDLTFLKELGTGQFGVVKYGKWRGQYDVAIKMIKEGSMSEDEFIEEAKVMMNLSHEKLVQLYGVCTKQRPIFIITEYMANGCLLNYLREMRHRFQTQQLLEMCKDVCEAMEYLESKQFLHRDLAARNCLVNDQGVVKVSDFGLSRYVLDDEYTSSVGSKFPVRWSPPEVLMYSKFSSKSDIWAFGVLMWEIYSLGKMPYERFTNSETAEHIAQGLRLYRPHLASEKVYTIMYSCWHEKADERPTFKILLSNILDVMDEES
OBSERVED_PROPERTY: IC50 (nM)
State just the number; it will be interpreted in nM.

[ask] Would you kindly share the measured IC50 for `C=CC(=O)N(C)Cc1c[nH]c2ncnc(-c3cccc(NC(=O)c4ccc(C(C)(C)C)cc4)c3C)c12` ?
[reply] 80

---

Please go through the items and note down their Intrinsic clearance (CLint).
assay: Intrinsic clearance in rat liver microsomes; format: ADME, Microsome
State just the number; it will be interpreted in µL/min/mg.

[ask] Would you kindly share the measured Intrinsic clearance (CLint) for `C=CC(=O)N1CCC(c2c[nH]c3ncnc(-c4cc(F)cc(NC(=O)c5ccc(C6CC6)cc5)c4C)c23)CC1` ?
[reply] 578

[ask] Would you kindly share the measured Intrinsic clearance (CLint) for `C/C=C/C(=O)N1CC=C(c2c[nH]c3ncnc(-c4cc(F)cc(NC(=O)c5ccc(C6CC6)cc5)c4C)c23)CC1` ?
[reply] 127

[ask] Would you kindly share the measured Intrinsic clearance (CLint) for `Cc1c(NC(=O)c2ccc(C3CC3)cc2)cc(F)cc1-c1ncnc2[nH]cc(C3=CCN(C(=O)/C=C/CN4CCCC4)CC3)c12` ?
[reply] 628
